Kindly state melting point for each of the entries shown.

Task item: Would you mind telling me what melting point value was observed for `CCOc1cc([C@@H](CCS(C)(=O)=O)N2Cc3cccc(NC(=O)C4CC4)c3C2=O)ccc1OC` ?
Reply: 148 to 150 °C

Task item: Subsequent entry: `CCOc1cc([C@@H](CCO)N2Cc3cccc(NC(=O)C4CC4)c3C2=O)ccc1OC`
Reply: 103 to 105 °C

Task item: Can you check `CCOc1cc([C@@H](CC(=O)NOC(=O)C(C)C)N2Cc3cccc(NC(=O)C4CC4)c3C2=O)ccc1OC` next?
Reply: 107 to 109 °C

Task item: How about `CCOc1cc([C@@H](CS(C)(=O)=O)N2Cc3c(Cl)ccc(NC(=O)CN4CCOCC4)c3C2=O)ccc1OC.Cl` ?
Reply: 198 to 200 °C

Task item: Now this one: `CCOc1cc([C@@H](CCNS(C)(=O)=O)N2Cc3cccc(NC(=O)C4CC4)c3C2=O)ccc1OC`
Reply: 93 to 95 °C

----------
Where a name gives a salt, the structure may show the parent alone.
Kindly state melting point for each of the entries shown.

Task item: Sample CCOc1cc([C@@H](CC[S+](C)[O-])N2Cc3cccc(NC(=O)C4CC4)c3C2=O)ccc1OC (stereo partly drawn) — what was its melting point?
Reply: 122 to 125 °C

Task item: Next molecule up: `CCOc1cc([C@@H](CC(=O)OC)N2Cc3c(Cl)ccc(NC(=O)C4CC4)c3C2=O)ccc1OC`
Reply: 158 to 160 °C

Task item: Then `CCOc1cc([C@@H](CCNO)N2Cc3cccc(NC(=O)C4CC4)c3C2=O)ccc1OC` ?
Reply: 136 to 138 °C

Task item: Try this molecule next: `CCOc1cc([C@@H](CS(C)(=O)=O)N2Cc3c(Cl)ccc(NC(=O)CN(C)C)c3C2=O)ccc1OC.Cl`
Reply: 198 to 200 °C

Task item: Check `CCOc1cc([C@@H](CS(C)(=O)=O)N2Cc3c(F)ccc(NC(=O)C4CC4)c3C2=O)ccc1OC` too.
Reply: 176 to 178 °C

Task item: What about this molecule? `CCOc1cc([C@@H](CC(=O)O)N2Cc3c(Cl)ccc(NC(=O)C4CC4)c3C2=O)ccc1OC`
Reply: 118 to 120 °C

Task item: Queued: `CCOc1cc([C@@H](CC(=O)NOC(=O)C2CC2)N2Cc3cccc(NC(=O)C4CC4)c3C2=O)ccc1OC`
Reply: 130 to 132 °C

Task item: Further, for CCOc1cc([C@@H](CCN)N2Cc3cccc(NC(=O)C4CC4)c3C2=O)ccc1OC (as salt: salt) ?
Reply: 169 to 171 °C

Task item: Another molecule to look at: `CCOc1cc([C@@H](CC(=O)NO)N2Cc3cccc(NC(=O)C4CC4)c3C2=O)ccc1OC`
Reply: 160 to 162 °C

Task item: Entry to check: CCOc1cc(C(CC#N)N2Cc3c(Cl)ccc(NC(=O)C4CC4)c3C2=O)ccc1OC (stereo not drawn)
Reply: 200 to 202 °C

Task item: Let us now turn to CCOc1cc(C(Cc2c(Cl)cncc2Cl)N2Cc3cccc(NC(=O)C4CC4)c3C2=O)ccc1OC (stereo not drawn)
Reply: 159 to 161 °C

Task item: // same read-out, input: CCOc1cc(C(CCN(OC(=O)OC(C)(C)C)C(=O)OC(C)(C)C)N2Cc3cccc(NC(=O)C4CC4)c3C2=O)ccc1OC (stereo not drawn)
Reply: 153 to 155 °C

Task item: // query: `CCOc1cc([C@@H](CC(C)(C)O)N2Cc3cccc(NC(=O)C4CC4)c3C2=O)ccc1OC`
Reply: 90 to 92 °C

Task item: Item: `CCOc1cc([C@@H](CC(=O)N(C)C)N2Cc3c(Cl)ccc(NC(=O)C4CC4)c3C2=O)ccc1OC`
Reply: 163 to 165 °C

Task item: Check `CCOc1cc([C@@H](CS(C)(=O)=O)N2Cc3c(Cl)ccc(NC(=O)CN4CCN(C)CC4)c3C2=O)ccc1OC` too.
Reply: 205 to 207 °C

----------
OBSERVED_PROPERTY: melting point

Task item: Look at this molecule and give its reported melting point. CCOc1cc([C@@H](CC(=O)NOC(C)=O)N2Cc3cccc(NC(=O)C4CC4)c3C2=O)ccc1OC [Example 10]
Reply: 140 to 142 °C

Task item: Follow-up entry: CCOc1cc([C@@H](CS(C)(=O)=O)N2Cc3c(Cl)ccc(NC(=O)C4CC4)c3C2=O)ccc1OC [Example 18]
Reply: 197 to 199 °C

Task item: Next entry: CCOc1cc([C@@H](CS(C)(=O)=O)N2Cc3c(Br)ccc(NC(=O)C4CC4)c3C2=O)ccc1OC [Example 19]
Reply: 219 to 221 °C

Task item: Then what about the molecule CCOc1cc([C@@H](CC(=O)NOC(=O)CC(C)(C)C)N2Cc3cccc(NC(=O)C4CC4)c3C2=O)ccc1OC [Example 27] ?
Reply: 118 to 120 °C

----------
Please respond with reported melting point for every item in the list.

Task item: Please report the recorded melting point for CCOc1cc(C(CC)N2Cc3cccc(NC(=O)C4CC4)c3C2=O)ccc1OC (stereo not shown) [Example 20] .
Reply: 107 to 109 °C

Task item: Same for `CCOc1cc([C@@H](CCN(C)C)N2Cc3cccc(NC(=O)C4CC4)c3C2=O)ccc1OC.Cl`
Reply: 119 to 121 °C

Task item: Same question, CCOc1cc([C@@H](CC(=O)NOC(C)=O)N2Cc3c(Cl)ccc(NC(=O)C4CC4)c3C2=O)ccc1OC [Example 17] this time
Reply: 139 to 141 °C

Task item: Now this one: CCOc1cc([C@@H](CCNC(N)=O)N2Cc3cccc(NC(=O)C4CC4)c3C2=O)ccc1OC [Example 6]
Reply: 162 to 164 °C

Task item: Queued: CCOc1cc([C@@H](CC(N)=O)N2Cc3c(Cl)ccc(NC(=O)C4CC4)c3C2=O)ccc1OC [Example 14]
Reply: 201 to 203 °C

Task item: Now the same for CCOc1cc([C@@H](CS(C)(=O)=O)N2Cc3c(Cl)ccc(NC(=O)N(C)C)c3C2=O)ccc1OC [Example 29]
Reply: 205 to 207 °C

Task item: Please do the same for CCOc1cc([C@@H](CC(=O)NOC(=O)C(C)(C)C)N2Cc3cccc(NC(=O)C4CC4)c3C2=O)ccc1OC [Example 26] as well.
Reply: 146 to 148 °C
